- target-under-test: purified human plasma kallikrein (Homo sapiens (Human))
- method: Plasma kallikrein enzyme inhibition assay (chromogenic substrate S-2302)
- Assay type: biochemical
- condition: measured at 37° C. (*)
Structures can show the parent of a compound that is named as a salt.
reported-property: Ki (nM)

molecule	bound-operator	readout-number
COC1CCN(c2cccc3c2CCN(C(=O)c2cnn(-c4cccnc4)c2)C3C(=O)Nc2ccc(C(=O)O)cc2)CC1 (centres unmarked) [Example 330, TFA salt]	>	6000
O=C(Nc1ccc(-c2ncc[nH]2)cc1)[C@H]1c2cccc(-c3cncnc3)c2CCN1C(=O)[C@H]1CC(c2cccc(Cl)c2F)=NO1 [Example 135, TFA salt]	=	399
COC1CCN(c2cccc3c2CCN(C(=O)[C@H]2CC(c4cccc(Cl)c4F)=NO2)[C@H]3C(=O)Nc2cccnc2)CC1 (single isomer, unassigned) [Example 242, TFA salt]	=	1230
Cn1cnc(-c2cccc3c2CCN(C(=O)c2cn(-c4cccc(Cl)c4F)nn2)C3C(=O)Nc2ccc(C(=O)O)cc2)c1 (centres unmarked) [Example 246, TFA salt]	=	29.7
COC1CCN(c2cccc3c2CCN(C(=O)[C@H]2CC(c4cccc(Cl)c4F)=NO2)[C@H]3C(=O)Nc2ccc(C(=O)O)cc2F)CC1 (single isomer, unassigned) [Example 244, TFA salt]	=	635

* * *

- target-under-test: purified human plasma kallikrein (Homo sapiens (Human), UniProt P03952)
- Sequence (P03952 391-638): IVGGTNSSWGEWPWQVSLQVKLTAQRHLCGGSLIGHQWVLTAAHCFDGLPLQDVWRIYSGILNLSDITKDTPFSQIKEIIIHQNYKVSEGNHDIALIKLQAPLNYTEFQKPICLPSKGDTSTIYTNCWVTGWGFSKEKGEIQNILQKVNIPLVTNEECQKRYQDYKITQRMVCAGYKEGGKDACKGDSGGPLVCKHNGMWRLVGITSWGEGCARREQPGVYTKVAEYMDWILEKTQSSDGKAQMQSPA
- Sequence (P03952 20-390 partner): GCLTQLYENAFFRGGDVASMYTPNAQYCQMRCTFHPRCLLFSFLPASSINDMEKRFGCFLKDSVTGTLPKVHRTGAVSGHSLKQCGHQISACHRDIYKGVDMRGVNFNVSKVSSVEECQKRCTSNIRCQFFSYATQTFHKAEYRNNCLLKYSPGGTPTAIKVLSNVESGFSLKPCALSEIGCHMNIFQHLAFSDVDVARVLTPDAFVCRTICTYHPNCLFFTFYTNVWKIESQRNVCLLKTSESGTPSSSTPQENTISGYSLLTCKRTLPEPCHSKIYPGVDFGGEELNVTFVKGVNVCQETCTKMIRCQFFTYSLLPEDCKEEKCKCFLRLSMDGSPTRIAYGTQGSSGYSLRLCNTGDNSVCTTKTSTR
- method: Plasma kallikrein enzyme inhibition assay (chromogenic substrate S-2302)
- Format: biochemical
- condition: measured at 25° C. (no asterisk)
Where a name gives a salt, the structure may show the parent alone.
reported-property: Ki (nM)

molecule	readout-number
COC1CCN(c2cccc3c2CCN(C(=O)c2nnn(-c4cccc(Cl)c4F)c2C)C3C(=O)Nc2ccc(C(=O)O)cc2)CC1 (racemic) [Example 253, TFA salt]	156
O=C(O)c1ccc(NC(=O)C2c3cccc(N4CCC(N5CCCC5=O)CC4)c3CCN2C(=O)c2cn(-c3cccc(Cl)c3F)cn2)cc1 (stereo not shown) [Example 92, TFA salt]	5.6
COC1CN(c2cccc3c2CCN(C(=O)c2cn(-c4cccc(Cl)c4F)nn2)C3C(=O)Nc2ccc(C(=O)O)cc2)C1 (stereo not shown) [Example 83, TFA salt]	12.1
CN(C)C1CCN(c2cccc3c2CCN(C(=O)c2cnn(-c4cccc(Cl)c4F)c2)C3C(=O)Nc2ccc(-c3ncco3)cc2)CC1 (stereo not shown) [Example 93, bis-TFA salt]	9.65
COCCOc1cccc2c1CCN(C(=O)[C@H]1CC(c3cccc(Cl)c3F)=NO1)[C@@H]2C(=O)Nc1ccc(C(=O)O)cc1	15.2
CN(C)C1CCN(c2cccc3c2CCN(C(=O)c2cn(-c4cccc(Cl)c4F)nn2)[C@H]3C(=O)Nc2ccc(-c3cn[nH]c3)cc2)CC1 [Example 103, bis-TFA salt]	34
CNC(=O)c1ccc(-c2cccc3c2CCN(C(=O)[C@H]2CC(c4cccc(Cl)c4F)=NO2)[C@H]3C(=O)Nc2ccc(C(=O)O)cc2)cn1 [Example 20, TFA salt]	840

* * *

- target-under-test: purified human Factor XIa (Homo sapiens (Human))
- Sequence (P03951 388-625): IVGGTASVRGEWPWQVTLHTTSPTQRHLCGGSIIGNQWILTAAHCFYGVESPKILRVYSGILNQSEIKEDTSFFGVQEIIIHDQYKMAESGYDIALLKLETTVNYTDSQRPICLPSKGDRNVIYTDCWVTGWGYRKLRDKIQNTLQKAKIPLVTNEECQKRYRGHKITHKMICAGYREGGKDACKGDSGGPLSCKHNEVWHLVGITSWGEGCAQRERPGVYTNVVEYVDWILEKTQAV
- Sequence (P03951 19-387 partner): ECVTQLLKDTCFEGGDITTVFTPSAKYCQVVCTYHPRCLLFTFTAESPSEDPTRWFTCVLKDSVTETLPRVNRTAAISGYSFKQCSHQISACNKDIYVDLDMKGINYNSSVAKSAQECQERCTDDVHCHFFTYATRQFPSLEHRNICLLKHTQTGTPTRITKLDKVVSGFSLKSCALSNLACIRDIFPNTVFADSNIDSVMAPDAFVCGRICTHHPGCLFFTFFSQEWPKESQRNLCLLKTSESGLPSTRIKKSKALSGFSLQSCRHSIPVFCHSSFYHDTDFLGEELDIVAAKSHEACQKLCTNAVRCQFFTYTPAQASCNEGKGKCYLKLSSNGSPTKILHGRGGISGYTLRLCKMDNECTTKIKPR
- method: Factor XIa enzyme inhibition assay (chromogenic substrate S-2366)
pKi: −log10 of the molar value. Counter-ions that a name gives are not always drawn.
Reported pKi values for the following compounds.

compound	pKi
O=C(O)c1ccc(NC(=O)C2c3cccc(N4CCC(N5CCCC5)CC4)c3CCN2C(=O)C2CC(c3cccc(Cl)c3)=NO2)cc1 (single isomer, unassigned) [Example 203, TFA salt]	> 8.30
COC1CCN(c2cccc3c2CCN(C(=O)c2cnn(-c4ccncc4)c2N)C3C(=O)Nc2ccc(C(=O)O)cc2)CC1 (racemic) [Example 313, TFA salt]	5.32
COC1CCN(c2cccc3c2CCN(C(=O)c2cn(-c4cccc(Cl)c4F)cn2)C3C(=O)Nc2ccc(C(=O)O)cc2)CC1 (racemic) [Example 271, TFA salt]	> 8.30
Cn1ccc(-c2cccc3c2CCN(C(=O)c2cn(-c4cccc(Cl)c4F)nn2)C3C(=O)Nc2ccc(C(=O)O)cc2)n1 (centres unmarked) [Example 43]	> 8.30
COc1ncc(-c2cccc3c2CCN(C(=O)c2cn(-c4cccc(Cl)c4F)nn2)C3C(=O)Nc2ccc(C(=O)O)cc2)cn1 (centres unmarked) [Example 31]	> 8.30
COCCOc1cccc2c1CCN(C(=O)c1cn(-c3cccc(Cl)c3F)nn1)C2C(=O)Nc1ccc(C(=O)O)cc1 (centres unmarked) [Example 113]	> 8.30
Cn1nccc1-c1cccc2c1CCN(C(=O)c1cn(-c3cccc(Cl)c3F)nn1)C2C(=O)Nc1ccc(C(=O)O)cc1 (centres unmarked) [Example 42]	> 8.30
COC1CCN(c2cccc3c2CCN(C(=O)[C@H]2CC(c4cccc(Cl)c4F)=NO2)[C@@H]3C(=O)Nc2cccc(F)c2)CC1 (single isomer, unassigned) [Example 237, TFA salt]	7.81
COC1CCN(c2cccc3c2CCN(C(=O)[C@H]2CC(c4cccc(Cl)c4F)=NO2)[C@H]3C(=O)Nc2ccc(C(=O)O)cc2F)CC1 (single isomer, unassigned) [Example 244, TFA salt]	7.41
COC1CCN(c2cccc3c2CCN(C(=O)N2CCCC(c4cccc(Cl)c4F)C2)C3C(=O)Nc2ccc(C(=O)O)cc2)CC1 (centres unmarked) [Example 326, TFA salt]	6.48
COC1CCN(c2cccc3c2CCN(C(=O)[C@H]2CC(c4cccc(Cl)c4F)=NO2)[C@@H]3C(=O)Nc2ccc(C(=O)O)cc2F)CC1 (single isomer, unassigned) [Example 243, TFA salt]	> 8.30
CN1CCN(c2cccc3c2CCN(C(=O)c2cn(-c4cccc(Cl)c4F)nn2)C3C(=O)Nc2ccc(C(=O)O)cc2)CC1=O (racemic) [Example 274, TFA salt]	> 8.30
COC1CCN(c2cccc3c2CCN(C(=O)c2cnc(-c4cccc(Cl)c4F)s2)C3C(=O)Nc2ccc(C(=O)O)cc2)CC1 (racemic) [Example 270, TFA salt]	7.69
COC1CCN(c2cccc3c2CCN(C(=O)c2cnn(-c4cccc(Cl)c4F)c2N)C3C(=O)Nc2ccc(C(=O)O)cc2)CC1 (racemic) [Example 309, TFA salt]	> 8.30
